Test: Pharmacokinetic and tissue distribution study
Assay type: in vivo, CD-1 male mice
Conditions: male, CD-1, mouse; mice, 20 mg/kg PO; plasma
observed_property: Cmax (ng/mL)
Kindly answer with a numeric value in ng/mL, unit omitted.

*Q* Could you tell me which Cmax is on file for `COc1cc(Nc2nccc(Nc3cccnc3-c3ccccn3)n2)ccc1N1CCN(C)CC1` ?
*A* 378

* * *

Assay: IV and PO plasma pharmacokinetics in rats
Type: in vivo
Conditions: Sprague-Dawley, rat, fasted female SD rats, 20 mg/kg PO
Method: Pharmacokinetic and toxicology of Compound 2 were tested in rats. The intravenous (IV) and oral (PO) pharmacokinetics of Compound 2 were determined in plasma in fasted female Sprague-Dawley (SD) rats. The formulation used was 20% solutol and 80% saline for both administration routes. The nominal dose was 2 mg/kg (IV) and 20 mg/kg (PO). Samples were taken at 8 time points and the drug concentrations were determined by LC-MS/MS.
observed_property: Cmax (ng/mL)
Kindly answer with a numeric value in ng/mL, unit omitted.

*Q* Could you tell me which Cmax is on file for COc1cc(Nc2nccc(Nc3cccnc3-c3ccccn3)n2)ccc1N1CCN(C)CC1 [Compound 2] ?
*A* 159

* * *

Assay: Pharmacokinetic and tissue distribution study
Assay type: in vivo, CD-1 male mice
Settings: male, CD-1, mouse; mice, 20 mg/kg PO; bone marrow
observed_property: half-life

*Q* Could you tell me which half-life is on file for `COc1cc(Nc2nccc(Nc3cccnc3-c3ccccn3)n2)ccc1N1CCN(C)CC1` ?
*A* 4.6 h

* * *

Assay: Kinetic solubility in pH 2, 5 and 7 buffers at RT
Type: physicochemical
Conditions: 19 °C, aqueous buffer, thermodynamic from solid; pH 2 buffer, 4 hrs, RT; read-out: S: solubility
observed_property: solubility at 4 h (µg/mL)
Kindly answer with a numeric value in µg/mL, unit omitted.

*Q* Could you tell me which solubility at 4 h is on file for COc1cc(Nc2nccc(Nc3cccnc3-c3ccccn3)n2)ccc1N1CCN(C)CC1 [Freebase Form A] ?
*A* 4100

* * *

Experiment: Pharmacokinetic and tissue distribution study
Format: in vivo, CD-1 male mice
Settings: male, CD-1, mouse; mice, 20 mg/kg PO; intestine
observed_property: Tmax (h)
Kindly answer with a numeric value in h, unit omitted.

*Q* Could you tell me which Tmax is on file for `COc1cc(Nc2nccc(Nc3cccnc3-c3ccccn3)n2)ccc1N1CCN(C)CC1` ?
*A* 1.8

* * *

Test: Estimated pKa values
Assay type: physicochemical
Conditions: method not stated
observed_property: pKa

*Q* Could you tell me which pKa is on file for COc1cc(Nc2nccc(Nc3cccnc3-c3ccccn3)n2)ccc1N1CCN(C)CC1 [Freebase Form A] ?
*A* 7.5

* * *

Assay: IV and PO plasma pharmacokinetics in rats
Format: in vivo
Settings: Sprague-Dawley, rat, fasted female SD rats, 20 mg/kg PO
Procedure: Pharmacokinetic and toxicology of Compound 2 were tested in rats. The intravenous (IV) and oral (PO) pharmacokinetics of Compound 2 were determined in plasma in fasted female Sprague-Dawley (SD) rats. The formulation used was 20% solutol and 80% saline for both administration routes. The nominal dose was 2 mg/kg (IV) and 20 mg/kg (PO). Samples were taken at 8 time points and the drug concentrations were determined by LC-MS/MS.
observed_property: Tmax (h)
Kindly answer with a numeric value in h, unit omitted.

*Q* Could you tell me which Tmax is on file for COc1cc(Nc2nccc(Nc3cccnc3-c3ccccn3)n2)ccc1N1CCN(C)CC1 [Compound 2] ?
*A* 5.33

* * *

Assay: Pharmacokinetics and relative bioavailability after a single oral dose (two liquid formulations, powder in capsule)
Format: in vivo, male Beagle dogs
Settings: male, Beagle, dog, plasma, po, 2 mg/kg, Formulation #1 (Table 43), 2 mg/kg oral, male Beagle dogs, plasma, individual dog; read-out: AUC0-TLast
observed_property: AUC(0-t)

*Q* Could you tell me which AUC(0-t) is on file for `COc1cc(Nc2nccc(Nc3cccnc3-c3ccccn3)n2)ccc1N1CCN(C)CC1` ?
*A* 45 ng·h/mL

* * *

Experiment: Pharmacokinetic and tissue distribution study
Assay type: in vivo, CD-1 male mice
Conditions: male, CD-1, mouse; mice, 20 mg/kg PO; liver
observed_property: half-life (h)
Kindly answer with a numeric value in h, unit omitted.

*Q* Could you tell me which half-life is on file for `COc1cc(Nc2nccc(Nc3cccnc3-c3ccccn3)n2)ccc1N1CCN(C)CC1` ?
*A* 3.3

* * *

Test: Approximate solubility of freebase in 12 solvents at RT
Format: physicochemical
Conditions: water, thermodynamic from solid, H2O
observed_property: solubility

*Q* Could you tell me which solubility is on file for COc1cc(Nc2nccc(Nc3cccnc3-c3ccccn3)n2)ccc1N1CCN(C)CC1 [Freebase Form A] ?
*A* < 1900 µg/mL

* * *

Assay: Pharmacokinetics and relative bioavailability after a single oral dose (two liquid formulations, powder in capsule)
Assay type: in vivo, male Beagle dogs
Details: male, Beagle, dog, plasma, po, 2 mg/kg, Formulation #2 (Table 44), 2 mg/kg oral, male Beagle dogs, Mean
From the text: The purpose of the study is to dose two suspension formulations of Compound 2 at two dose levels by gavage to Beagle dogs and to collect blood samples for the determination of plasma concentrations, derivation of pharmacokinetic parameters and to determine the relative bioavailability of the two suspension formulations. […]
observed_property: AUC(0-inf) (ng·h/mL)
Kindly answer with a numeric value in ng·h/mL, unit omitted.

*Q* Could you tell me which AUC(0-inf) is on file for COc1cc(Nc2nccc(Nc3cccnc3-c3ccccn3)n2)ccc1N1CCN(C)CC1 [Compound 2] ?
*A* 105

* * *

Assay: Pharmacokinetics and relative bioavailability after a single oral dose (two liquid formulations, powder in capsule)
Format: in vivo, male Beagle dogs
Settings: male, Beagle, dog, plasma, po, 5 mg/kg, Powder in Capsule (Table 45), 5 mg/kg oral, male Beagle dogs, plasma, Mean; read-out: Cmax
observed_property: Cmax (ng/mL)
Kindly answer with a numeric value in ng/mL, unit omitted.

*Q* Could you tell me which Cmax is on file for `COc1cc(Nc2nccc(Nc3cccnc3-c3ccccn3)n2)ccc1N1CCN(C)CC1` ?
*A* 25.6

* * *

Assay: Pharmacokinetics and relative bioavailability after a single oral dose (two liquid formulations, powder in capsule)
Assay type: in vivo, male Beagle dogs
Conditions: male, Beagle, dog, plasma, po, 5 mg/kg, Powder in Capsule (Table 45), 5 mg/kg oral, male Beagle dogs, plasma, Mean; read-out: Vz/F
observed_property: Vd/F (L/kg)
Kindly answer with a numeric value in L/kg, unit omitted.

*Q* Could you tell me which Vd/F is on file for COc1cc(Nc2nccc(Nc3cccnc3-c3ccccn3)n2)ccc1N1CCN(C)CC1 [Compound 2] ?
*A* 147

* * *

Assay: Pharmacokinetics and relative bioavailability after a single oral dose (two liquid formulations, powder in capsule)
Type: in vivo, male Beagle dogs
Details: male, Beagle, dog, plasma, po, 2 mg/kg, Powder in Capsule (Table 45), 2 mg/kg oral, male Beagle dogs, individual dog
observed_property: half-life (h)
Kindly answer with a numeric value in h, unit omitted.

*Q* Could you tell me which half-life is on file for `COc1cc(Nc2nccc(Nc3cccnc3-c3ccccn3)n2)ccc1N1CCN(C)CC1` ?
*A* 2.4

* * *

Assay: Kinetic solubility in pH 2, 5 and 7 buffers at RT
Assay type: physicochemical
Conditions: 19 °C, aqueous buffer, thermodynamic from solid; pH 7 buffer, 1 hr, RT; read-out: S: solubility
observed_property: solubility at 1 h
Units required after the number.

*Q* Could you tell me which solubility at 1 h is on file for COc1cc(Nc2nccc(Nc3cccnc3-c3ccccn3)n2)ccc1N1CCN(C)CC1 [Freebase Form A] ?
*A* 0.4 µg/mL

* * *

Experiment: Pharmacokinetics and relative bioavailability after a single oral dose (two liquid formulations, powder in capsule)
Format: in vivo, male Beagle dogs
Details: male, Beagle, dog, plasma, po, 2 mg/kg, Powder in Capsule (Table 45), 2 mg/kg oral, male Beagle dogs, plasma, Mean; read-out: AUC0-TLast
observed_property: AUC(0-t) (ng·h/mL)
Kindly answer with a numeric value in ng·h/mL, unit omitted.

*Q* Could you tell me which AUC(0-t) is on file for `COc1cc(Nc2nccc(Nc3cccnc3-c3ccccn3)n2)ccc1N1CCN(C)CC1` ?
*A* 71

* * *

Assay: Pharmacokinetic and tissue distribution study
Assay type: in vivo, CD-1 male mice
Details: male, CD-1, mouse; mice, 20 mg/kg PO; spleen
observed_property: Cmax (ng/g)
Kindly answer with a numeric value in ng/g, unit omitted.

*Q* Could you tell me which Cmax is on file for `COc1cc(Nc2nccc(Nc3cccnc3-c3ccccn3)n2)ccc1N1CCN(C)CC1` ?
*A* 36200

* * *

Assay: IV and PO plasma pharmacokinetics in rats
Assay type: in vivo
Conditions: Sprague-Dawley, rat, fasted female SD rats, 20 mg/kg PO
observed_property: AUC
Units required after the number.

*Q* Could you tell me which AUC is on file for `COc1cc(Nc2nccc(Nc3cccnc3-c3ccccn3)n2)ccc1N1CCN(C)CC1` ?
*A* 2520 ng·h/mL

* * *

Experiment: Pharmacokinetic and tissue distribution study
Format: in vivo, CD-1 male mice
Settings: male, CD-1, mouse; mice, 20 mg/kg PO; spleen
observed_property: Tmax (h)
Kindly answer with a numeric value in h, unit omitted.

*Q* Could you tell me which Tmax is on file for `COc1cc(Nc2nccc(Nc3cccnc3-c3ccccn3)n2)ccc1N1CCN(C)CC1` ?
*A* 6

The reported measurements were obtained from patent US11040038B2.
